- System: HBV viral load, AD38 cells
- Protocol Description: Activity of test compounds on viral production from AD38 cells (viral load by quantitative PCR of the core sequence in supernatant)
- Format: cell-based, Hepatitis B virus
- Measurement Parameters: Hepatitis B virus, 144 h, 10 μM compound, 6 days at 37° C., vs DMSO control wells; Table 6; read-out: AD38 Viral Load (CpAM/DMSO %) at 10 μM
Measurement Type: activity at 10 µM (%)
Give the value, in units of %, as a plain number.

Request: Give the reported activity at 10 µM for Cc1ccc(Nc2cc(C)nc(N3CCN(S(=O)(=O)c4ccc(Oc5ccccc5)cc4)CC3)n2)cc1 (system: HBV viral load, AD38 cells).
Result: 24

Request: For HBV viral load, AD38 cells, provide activity at 10 µM of COc1cccc(S(=O)(=O)N2CCN(c3cc(C)nc(Nc4ccc(C)cc4)n3)CC2)c1 please.
Result: 1

Request: Could you share what activity at 10 µM was measured for O=S(=O)(c1cccc(C(F)(F)F)c1)N1CCN(c2nc(Oc3ccc(F)cc3)cc(-n3cnnc3)n2)CC1 , tested on HBV viral load, AD38 cells?
Result: 26

Request: Missing value: activity at 10 µM, HBV viral load, AD38 cells, entry COc1ccc(S(=O)(=O)N2CCN(c3nc(Nc4ccc(C)cc4)cc(OC)n3)CC2)cc1 . Fill in?
Result: 35

Request: Fill in the recorded activity at 10 µM for this molecule, with HBV viral load, AD38 cells as test system: COc1ccc(S(=O)(=O)N2CCN(c3nc(Nc4ccc(C)cc4)cc(NC(C)(C)C)n3)CC2)cc1
Result: 31

Request: I'm curious: which activity at 10 µM was measured for CN(C)c1cc(Oc2ccc(F)cc2)nc(N2CCN(S(=O)(=O)c3ccccc3)CC2)n1 tested on HBV viral load, AD38 cells?
Result: 54

Request: API: value(readout= activity at 10 µM, system= HBV viral load, AD38 cells, query= COc1ccc(S(=O)(=O)N2CCN(c3nc(Nc4ccc(C)cc4)cc(-n4cnnc4)n3)CC2)cc1 )
Result: 22

Request: Kindly state the measured activity at 10 µM obtained for COc1ccc(S(=O)(=O)N2CCN(c3nc(C)cc(Oc4ccc(C)cc4)n3)CC2)cc1 with HBV viral load, AD38 cells.
Result: 20

Request: Quick check: activity at 10 µM on HBV viral load, AD38 cells, item Cc1ccc(Nc2cc(C)nc(N3CCN(S(=O)(=O)c4cccc5ccccc45)CC3)n2)cc1 ?
Result: 16

Request: Form field: activity at 10 µM recorded for CN(C)c1cc(Nc2ccc(F)cc2)nc(N2CCN(S(=O)(=O)c3ccc(F)cc3)CC2)n1 with HBV viral load, AD38 cells (enter value)
Result: 52

Request: Write down the reported activity at 10 µM of Cc1ccc(Nc2cc(C)nc(N3CCN(S(=O)(=O)c4ccncc4)CC3)n2)cc1 , test system: HBV viral load, AD38 cells.
Result: 50

Request: Record lookup: for HBV viral load, AD38 cells, what activity at 10 µM belongs to COc1ccc(S(=O)(=O)N2CCN(c3nc(C)cc(Sc4ccc(C)cc4)n3)CC2)cc1 ?
Result: 81

Request: Notebook entry, HBV viral load, AD38 cells assay: activity at 10 µM of COc1ccc(S(=O)(=O)N2CCN(c3nc(Nc4ccc(C)cc4)cc(N4CCCCC4)n3)CC2)cc1 = ?
Result: 72

Request: Lookup: activity at 10 µM / HBV viral load, AD38 cells / CC(C)c1cc(Oc2ccc(F)cc2)nc(N2CCN(S(=O)(=O)c3ccc(F)cc3)CC2)n1
Result: 84

Request: Form entry - test system: HBV viral load, AD38 cells; read-out: activity at 10 µM; molecule: Cc1cc(Nc2ccc(C#N)cc2)nc(N2CCN(S(=O)(=O)c3ccc(C(F)(F)F)cc3)CC2)n1
Result: 35

* * *

- Test system: HBV viral load, AD38 cells
- Protocol Description: Activity of test compounds on viral production from AD38 cells (viral load by quantitative PCR of the core sequence in supernatant)
- Type: cell-based, Hepatitis B virus
- Measurement Parameters: Hepatitis B virus, 144 h, 10 μM compound, 6 days at 37° C., vs DMSO control wells; Table 6; read-out: AD38 Viral Load (CpAM/DMSO %) at 10 μM
Would you mind telling me the reported activity at 10 µM of each entry?
Just the number please, in %, no unit attached.

Request: I have this compound here, Cc1cc(Nc2ccc(C#N)cc2)nc(N2CCN(S(=O)(=O)c3ccc(O)cc3)CC2)n1 , and I need its recorded activity at 10 µM.
Result: 9

Request: Which activity at 10 µM value belongs to Cc1ccc(Nc2cc(C)nc(N3CCN(S(=O)(=O)c4cccs4)CC3)n2)cc1 ?
Result: 15

Request: // lookup activity at 10 µM for CC(C)c1cc(Oc2ccc(F)cc2)nc(N2CCN(S(=O)(=O)c3cccc(C(F)(F)F)c3)CC2)n1
Result: 77

Request: Looking for the measured activity at 10 µM of Cc1cc(Nc2ccc(C#N)cc2)nc(N2CCN(S(=O)(=O)c3ccccc3)CC2)n1 , can you help?
Result: 1

Request: State the recorded activity at 10 µM for this entry: COc1cccc(S(=O)(=O)N2CCN(c3cc(C)cc(Nc4ccc(C)cc4)n3)CC2)c1
Result: 9

Request: Look up activity at 10 µM: COc1ccc(S(=O)(=O)N2CCN(c3nc(Nc4ccc(C)cc4)cc(-c4nccs4)n3)CC2)cc1
Result: 30

Request: Could you share which activity at 10 µM value was measured for O=S(=O)(c1ccc(F)cc1)N1CCN(c2nc(Nc3ccc(F)cc3)cc(-n3cnnc3)n2)CC1 ?
Result: 31

Request: Which activity at 10 µM value belongs to COc1ccc(S(=O)(=O)N2CCN(c3nc(C)cc(Nc4ccc(C)nc4)n3)CC2)cc1 ?
Result: 64

* * *

Provide the recorded AD38 Viability Normalized Result (CPAM/DMSO %) at 10 μM for the entries that follow.
- System: AD38 cells
- Protocol Description: AD38 viability normalized to DMSO control
- Format: cell-based
- Measurement Parameters: 10 μM compound, vs DMSO control; Table 9
Your answer should be a plain number; it is taken to be in %.

Request: Need AD38 Viability Normalized Result (CPAM/DMSO %) at 10 μM, item CCCOc1ccc(S(=O)(=O)N2CCN(c3nc(Nc4ccc(F)cc4)cc(C(F)(F)F)n3)CC2)cc1
Result: 93

Request: Consider the compound O=S(=O)(c1ccc(OCCN2CCOCC2)cc1)N1CCN(c2nc(Nc3ccc(F)cc3)cc(C(F)(F)F)n2)CC1 and give its measured AD38 Viability Normalized Result (CPAM/DMSO %) at 10 μM.
Result: 104

Request: Report AD38 Viability Normalized Result (CPAM/DMSO %) at 10 μM for COCCOc1ccc(S(=O)(=O)N2CCN(c3nc(Nc4ccc(F)cc4)cc(C(F)(F)F)n3)CC2)cc1 please.
Result: 91

Request: Given the compound COc1ccc(S(=O)(=O)N2CCN(c3nc(C)cc(Nc4ccc(F)cc4)n3)CC2C)cc1 (stereo not shown) , what is its reported AD38 Viability Normalized Result (CPAM/DMSO %) at 10 μM?
Result: 102

* * *

- System: AD38 cells
- Protocol Description: AD38 viability normalized to DMSO control
- Assay type: cell-based
- Measurement Parameters: 10 μM compound, vs DMSO control; Table 6
Measurement Type: AD38 Viability Normalized Result (CPAM/DMSO %) at 10 μM
Quick note: give the figure in %, leave out the unit.

Request: Record request: AD38 Viability Normalized Result (CPAM/DMSO %) at 10 μM value, item COc1ccc(S(=O)(=O)N2CCN(c3nc(Nc4ccc(C)cc4)cc(N4CCSCC4)n3)CC2)cc1
Result: 98

Request: What value of AD38 Viability Normalized Result (CPAM/DMSO %) at 10 μM has been reported for the following molecule? CN(C)c1cc(Oc2ccc(F)cc2)nc(N2CCN(S(=O)(=O)c3cccc(C(F)(F)F)c3)CC2)n1
Result: 105

Request: Entry under review: CN(C)c1cc(Nc2ccc(F)cc2)nc(N2CCN(S(=O)(=O)c3ccc(C(F)(F)F)cc3)CC2)n1 . Reported AD38 Viability Normalized Result (CPAM/DMSO %) at 10 μM?
Result: 35

Request: Fill blank: measured AD38 Viability Normalized Result (CPAM/DMSO %) at 10 μM of the molecule Cc1ccc(Nc2cc(C)nc(N3CCN(S(=O)(=O)c4ccncc4)CC3)n2)cc1 is ____.
Result: 105
